# EXPERIMENTAL_PROTOCOL: Solubility in toluene, xylene and chloroform at 25° C.
# Format: physicochemical
# CONDITION_NOTES: toluene, organic solvent or mixture, in toluene, read-out: solubility in toluene (text summary of Table 1)
Reported solubility by item:

Solved cases below.
                           substance_smiles  experimental_readout        value
0  c1ccc(-c2nc(-c3ccc4c(c3)C3(c5ccccc5-4)c4ccccc4N(c4ccccc4)c4ccccc43)nc(-n3c4ccccc4c4cc5c6ccccc6n(-c6ccccc6)c5cc43)n2)cc1            solubility  > 200 mg/mL
1  CC1(C)c2ccccc2N(c2nc(-c3ccccc3)nc(-c3ccc4c(c3)-c3ccccc3C43c4ccccc4-c4ccccc43)n2)c2cc3c(cc21)c1ccccc1n3-c1ccccc1            solubility  > 200 mg/mL

Now let's try a different one.
// query Field request: solubility | item: CC1(C)c2ccccc2N(c2ccccc2)c2cc3c(cc21)N(c1nc(-c2ccccc2)cc(-c2cccc4c2-c2ccccc2C42c4ccccc4-c4ccccc42)n1)c1ccccc1C3(C)C
// result > 200 mg/mL

----------
# EXPERIMENTAL_PROTOCOL: Solubility in toluene, xylene and chloroform at 25° C.
# Type: physicochemical
# CONDITION_NOTES: xylene, organic solvent or mixture, in xylene, read-out: Solubility Xylene
EXPERIMENTAL_READOUT: solubility (mg/mL)

                           substance_smiles  value
0  [2H]c1cc2c3ccccc3n(-c3nc(-c4ccccc4)cc(-c4ccc5c(c4)-c4ccccc4C54c5ccccc5-c5ccccc54)n3)c2c2c3ccccc3n(-c3ccccc3)c12    313
1  c1ccc(-c2nc(-c3ccc4c(c3)C3(c5ccccc5-4)c4ccccc4N(c4ccccc4)c4ccccc43)nc(-n3c4ccccc4c4cc5c6ccccc6n(-c6ccccc6)c5cc43)n2)cc1    284
2  c1ccc(-c2cc(-c3ccc4c(c3)-c3ccccc3C43c4ccccc4-c4ccccc43)nc(N3c4ccccc4Oc4ccc5c(c43)c3ccccc3n5-c3ccccc3)n2)cc1    362
3  c1ccc(-c2nc(-c3cccc4c3-c3ccccc3C43c4ccccc4-c4ccccc43)nc(-n3c4ccccc4c4c5c6ccccc6n(-c6ccccc6)c5ccc43)n2)cc1    243
4  c1ccc(-c2nc(-c3ccc4c(c3)C3(c5ccccc5Sc5ccccc53)c3ccccc3-4)nc(-n3c4ccccc4c4ccc5c6ccccc6n(-c6ccccc6)c5c43)n2)cc1    354
5  CC1(C)c2ccccc2-c2ccc3c4ccccc4n(-c4nc(-c5ccccc5)nc(-c5cccc6c5-c5ccccc5C65c6ccccc6-c6ccccc65)n4)c3c21    452
6  c1ccc(-c2nc(-c3cccc4c3-c3ccccc3C43c4ccccc4-c4ccccc43)nc(-n3c4ccccc4c4ccc5c6ccccc6n(-c6ccccc6)c5c43)n2)cc1    320
